Biological target: PA-I galactophilic lectin (Pseudomonas aeruginosa (strain ATCC 15692 / PAO1 / 1C / PRS 101 / LMG12228)) (UniProt Q05097)
Sequence (whole entry): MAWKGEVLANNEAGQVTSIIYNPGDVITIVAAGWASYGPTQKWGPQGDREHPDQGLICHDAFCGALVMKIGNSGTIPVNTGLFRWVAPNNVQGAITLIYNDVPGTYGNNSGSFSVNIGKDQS
Assay: Binding affinity to Pseudomonas aeruginosa LecA expressed in Escherichia coli BL21 (DE3) cells assessed as change in entropy by isothermal titration calorimetry
readout_type: TdeltaS (kcal/mol)
Give bare numbers, in kcal/mol.

{"columns": ["compound", "TdeltaS [kcal/mol]"],
 "data": [
  ["C=C(c1ccc(S[C@@H]2O[C@H](CO)[C@H](O)[C@H](O)[C@H]2O)cc1)c1ccc2ccccc2c1", -1.53],
  ["C=C(c1cc(OC)c(OC)c(OC)c1)c1ccc(OC)c(S[C@@H]2O[C@H](CO)[C@H](O)[C@H](O)[C@H]2OC(C)=O)c1", -1.58]
]}

Would you kindly look at the next entry?
Kindly note the recorded TdeltaS for C=C(c1ccc(S[C@@H]2O[C@H](CO)[C@H](O)[C@H](O)[C@H]2O)cc1)c1cccc(S[C@H]2O[C@@H](CO)[C@@H](O)[C@@H](O)[C@@H]2O)c1 (single isomer, unassigned) , which is -12.3
